Value source: PubChem BioAssay (NCI)

test system: SF-268 CNS; experiment: NCI-60 one-dose screen, 48 h; conditions: 10 µM unless noted
This is part of a sample that, as a whole, favours compounds with a hit. Of some 83,000 tested, about 20% had one in any assay. The source made the active and inactive calls. How the source made its calls: active means growth percent below 10; inactive means the rest.
Select the matching outcome among active, inactive

Cc1ccc(NS(=O)(=O)c2ccc(-c3cnc(C4CC4)o3)cc2)cc1    inactive
COc1ccccc1-n1c(SCc2cc(OC)c(OC)c(OC)c2)nc2ccc(Cl)cc2c1=O    inactive
COc1cc(C2CC(=O)Nc3c2ccc2ccccc32)cc(Br)c1OC (stereo not given)    inactive
O=C1Nc2ccc(Cl)cc2/C1=N/N=C(c1ccccc1)c1ccccc1    inactive
C=C[C@H]1C[C@@H]2C[C@@H]3[C@H]4C/C=C\C(=O)NCCCC5NC(=O)C(=C(O)/C=C/[C@@H]4CC(=O)[C@H]3[C@@H]2[C@H]1C)C5=O (stereo not given in full)    active
COc1ccc(OC)c2ncccc12    inactive
COc1ccc(/C=C2\SC(=O)N(CN3CCN(c4cc5c(cc4F)c(=O)c(C(=O)O)cn5C4CC4)CC3)C2=O)cc1    inactive
CCOC(=O)c1c(Cl)c2c(n1Cc1cc(OC)cc(OC)c1)-c1oncc1CCC2    inactive

Then this compound:
Each compound tested received a call. Report the one for `Cc1nc2cc(Nc3nc(N4CCCCC4)nc(N4CCOCC4)n3)ccc2n1Cc1ccccc1` . inactive

---

Test system: SK-OV-3 ovarian
Assay: NCI-60 one-dose screen, 48 h (100 = growth as untreated, 0 = no growth, -100 = all killed)
Details: 10 µM
Description: Growth inhibition of the SK-OV-3 human tumor cell line is measured as a screen for anti-cancer activity. Cells are grown in 96 well plates and exposed to the test compound for 48 hours. Compounds are tested at a single concentration, which is 10^-5 M for most compounds. The reported endpoint is percent growth (GI% or GIPRCNT), where numbers from 0 - 100% represent growth inhibition, and numbers from -100% - 0 represent cell death. For example, a value of 40 represents 60% growth inhibition. […]
This is part of a sample that, as a whole, favours compounds with a hit. Of some 83,000 tested, about 20% had one in any assay. Activity calls are given as the source filed them. How the source made its calls: active means growth percent below 10; inactive means the rest.
Measurement label: growth

Cc1nn(CC(=O)O)c2c1C(=O)CC(C)(C)C2    101% (inactive)

Quick check: growth of `CCN1CCN(C(=S)SCC(=O)Nc2nc3ccc(OC)cc3s2)CC1` ? 112% (inactive)

// query: `Cc1nc2cc(Nc3nc(Nc4ccc(F)cc4)nc(-c4cccs4)n3)ccc2n1Cc1ccccc1` 95.1% (inactive)

// query: `Cc1nn(-c2ccccc2)c2nc3nc4c(c(N)c3c(-c3ccc(Cl)cc3)c12)CCC4` 98.6% (inactive)

// query: `COc1ccc(NC(=O)COc2ccccc2)c(C(N)=O)c1` 4.18% (active)

// query: `CCCCCCCCCCCCCCNc1nc(CO)ncc1-c1ccc(C(F)(F)F)cc1` 91.7% (inactive)

// query: `CCCCc1ccc(NC(=O)C(F)(F)F)cc1` 109% (inactive)

// query: `O=C1/C(=C/c2ccc(Cl)cc2)N=C(c2ccccc2)N1CCc1cccs1` 105% (inactive)

// query: C=C(C)CCCC(C)CC#N (stereo unspecified) 103% (inactive)

// query: `Cc1cc(=O)[nH]n1-c1cc(Cl)ccc1N` 98.6% (inactive)

// query: Cc1ccc(S(=O)(=O)N2CCc3ccc(O)c4c3C2Cc2cc(Cl)ccc2-4)cc1 (stereo unspecified) 70% (inactive)
